Test: melting temperature; fluorescence melt of hairpins on a sequencing array, two-state fit, raised by 9.35 °C to match UV melts
Settings: sodium 0.088 M
Tm vs 50 °C: at or above is met, below is not met.

q: Determine whether this sequence has Tm no lower than 50 °C: CGGTCGGAAACGAAGCCG ((((((....)))..)))
a: not met

q: Can you check GGGGTCCGAAAGGATCCC (((.(((....))).))) next?
a: met

q: Another sequence: GTTAGGGAAACCTAAC ((((((....))))))
a: not met

q: And then GTCATCCCGAAAGGGGAC (((..(((....)))))) , what is it?
a: not met

q: Next sequence up: GATCCTTTAGAGGATC ((((((....))))))
a: met

q: Here is the next sequence: GAACCGGGAAACCGATTC (((.(((....))).)))
a: not met

q: Can you check GCGGGGTCCCGC ((((....)))) next?
a: met

Data origin: the array DNA melting data of Ke et al. (doi:10.1101/2024.01.08.574731)
